# Test Protocol: Cytotoxicity MTT assay
# Assay type: cell-based, human
# Conditions: human
Measure Name: CC50 at 24 h (µM)

{"Compound": "CCCCCCCCCCC(=O)N[C@@H](CCCCN)C(=O)N[C@@H](CCCCN)C(=O)N[C@@H](CCCCNC(=O)[C@H]1NC(=O)[C@H]2NC(=O)[C@H](NC(=O)[C@@H]3NC(=O)[C@H](CC(N)=O)NC(=O)[C@H](NC(=O)[C@@H](CC(C)C)NC)[C@H](O)c4ccc(c(Cl)c4)Oc4cc3cc(c4O[C@@H]3O[C@H](CO)[C@@H](O)[C@H](O)[C@H]3O[C@H]3C[C@](C)(N)[C@H](O)[C@H](C)O3)Oc3ccc(cc3Cl)[C@H]2O)c2ccc(O)c(c2)-c2c(O)cc(O)cc21)C(N)=O [Compound 21, nC10CO-KK-K(Vancomycin)-NH2]", "Comparison Symbol": "=", "Number": 113}
{"Compound": "CCCCCCCCCCC(=O)N[C@@H](CCCCN)C(=O)N[C@@H](CCCCN)C(=O)N[C@@H](CCCCN)C(=O)N[C@@H](CCCCNC(=O)[C@H]1NC(=O)[C@H]2NC(=O)[C@H](NC(=O)[C@@H]3NC(=O)[C@H](CC(N)=O)NC(=O)[C@H](NC(=O)[C@@H](CC(C)C)NC)[C@H](O)c4ccc(c(Cl)c4)Oc4cc3cc(c4O[C@@H]3O[C@H](CO)[C@@H](O)[C@H](O)[C@H]3O[C@H]3C[C@](C)(N)[C@H](O)[C@H](C)O3)Oc3ccc(cc3Cl)[C@H]2O)c2ccc(O)c(c2)-c2c(O)cc(O)cc21)C(=O)O [Compound 18, nC10CO-KKK-K(Vancomycin)-OH]", "Comparison Symbol": "=", "Number": 108}
{"Compound": "CCCCCCCCCC(=O)N[C@@H](Cc1c[nH]c2ccccc12)C(=O)N[C@H](CC(N)=O)C(=O)N[C@@H](CC(=O)O)C(=O)N[C@@H]1C(=O)NCC(=O)N[C@@H](CCCN)C(=O)N[C@@H](CC(=O)O)C(=O)N[C@H](C)C(=O)N[C@@H](CC(=O)O)C(=O)NCC(=O)N[C@H](CO)C(=O)N[C@@H]([C@H](C)CC(=O)O)C(=O)N[C@@H](CC(=O)c2ccccc2N)C(=O)O[C@@H]1C", "Comparison Symbol": ">", "Number": 500}
{"Compound": "CN[C@H](CC(C)C)C(=O)N[C@H]1C(=O)N[C@@H](CC(N)=O)C(=O)N[C@H]2C(=O)N[C@H]3C(=O)N[C@H](C(=O)N[C@H](C(=O)NCCCC[C@H](NC(=O)[C@H](CCCCN)NC(=O)[C@H](CCCCN)NC(C)=O)C(=O)O)c4cc(O)cc(O)c4-c4cc3ccc4O)[C@H](O)c3ccc(c(Cl)c3)Oc3cc2cc(c3O[C@@H]2O[C@H](CO)[C@@H](O)[C@H](O)[C@H]2O[C@H]2C[C@](C)(N)[C@H](O)[C@H](C)O2)Oc2ccc(cc2Cl)[C@H]1O", "Comparison Symbol": ">", "Number": 500}
{"Compound": "CCCCCCCCCCCCCC(=O)NCC(=O)N[C@@H](CO)C(=O)N[C@@H](CCCCN)C(=O)N[C@@H](CCCCN)C(=O)N[C@@H](CCCCN)C(=O)N[C@@H](CSSCCNC(=O)[C@H]1NC(=O)[C@H]2NC(=O)[C@H](NC(=O)[C@@H]3NC(=O)[C@H](CC(N)=O)NC(=O)[C@H](NC(=O)[C@@H](CC(C)C)NC)[C@H](O)c4ccc(c(Cl)c4)Oc4cc3cc(c4O[C@@H]3O[C@H](CO)[C@@H](O)[C@H](O)[C@H]3O[C@H]3C[C@](C)(N)[C@H](O)[C@H](C)O3)Oc3ccc(cc3Cl)[C@H]2O)c2ccc(O)c(c2)-c2c(O)cc(O)cc21)C(=O)O", "Comparison Symbol": "=", "Number": 11}
{"Compound": "CCCCCCCCCCC(=O)N[C@@H](CCCCN)C(=O)N[C@@H](CCCCN)C(=O)N[C@@H](CCCCNC(=O)[C@H]1NC(=O)[C@H]2NC(=O)[C@H](NC(=O)[C@@H]3NC(=O)[C@H](CC(N)=O)NC(=O)[C@H](NC(=O)[C@@H](CC(C)C)NC)[C@H](O)c4ccc(c(Cl)c4)Oc4cc3cc(c4O[C@@H]3O[C@H](CO)[C@@H](O)[C@H](O)[C@H]3O[C@H]3C[C@](C)(N)[C@H](O)[C@H](C)O3)Oc3ccc(cc3Cl)[C@H]2O)c2ccc(O)c(c2)-c2c(O)cc(O)cc21)C(=O)NC [Compound 22, nC10CO-KK-K(Vancomycin)-NHMe]", "Comparison Symbol": "=", "Number": 47}
